Consider compounds characterized by their IC50 with Lysine-specific demethylase 2A (Homo sapiens, UniProt Q9Y2K7).
Sequence (Q9Y2K7 whole entry): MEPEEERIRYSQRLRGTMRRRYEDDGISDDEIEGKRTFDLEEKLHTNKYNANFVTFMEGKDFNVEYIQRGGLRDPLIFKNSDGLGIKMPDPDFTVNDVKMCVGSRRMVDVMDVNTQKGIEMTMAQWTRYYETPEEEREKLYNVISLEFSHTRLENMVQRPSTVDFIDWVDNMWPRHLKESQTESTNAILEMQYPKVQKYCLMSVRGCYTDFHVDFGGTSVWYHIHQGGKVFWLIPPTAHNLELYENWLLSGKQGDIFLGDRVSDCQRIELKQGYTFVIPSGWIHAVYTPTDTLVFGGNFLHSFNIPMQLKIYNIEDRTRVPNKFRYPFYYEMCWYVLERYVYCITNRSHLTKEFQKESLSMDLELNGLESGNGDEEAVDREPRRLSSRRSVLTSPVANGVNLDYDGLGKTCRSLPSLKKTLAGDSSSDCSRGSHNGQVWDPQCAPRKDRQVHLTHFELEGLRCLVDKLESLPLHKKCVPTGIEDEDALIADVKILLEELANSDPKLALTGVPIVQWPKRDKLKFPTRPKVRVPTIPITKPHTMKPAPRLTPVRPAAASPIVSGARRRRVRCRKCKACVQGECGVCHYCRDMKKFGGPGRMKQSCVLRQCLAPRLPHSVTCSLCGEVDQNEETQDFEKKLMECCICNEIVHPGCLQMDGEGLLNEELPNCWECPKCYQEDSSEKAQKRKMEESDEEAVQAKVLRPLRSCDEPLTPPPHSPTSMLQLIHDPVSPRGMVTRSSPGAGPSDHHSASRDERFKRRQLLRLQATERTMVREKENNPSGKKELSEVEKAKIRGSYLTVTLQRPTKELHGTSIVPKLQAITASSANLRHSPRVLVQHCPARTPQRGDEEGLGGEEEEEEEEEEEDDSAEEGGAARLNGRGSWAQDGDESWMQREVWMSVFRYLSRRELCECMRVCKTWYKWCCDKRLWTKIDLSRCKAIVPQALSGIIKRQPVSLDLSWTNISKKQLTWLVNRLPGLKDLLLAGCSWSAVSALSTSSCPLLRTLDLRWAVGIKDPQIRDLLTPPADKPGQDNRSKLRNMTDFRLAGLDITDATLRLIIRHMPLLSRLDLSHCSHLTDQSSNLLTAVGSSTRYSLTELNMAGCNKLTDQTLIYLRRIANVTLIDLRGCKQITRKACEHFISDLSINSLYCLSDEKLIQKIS
Just the number in µM, nothing appended.

[
  {
    "record.smiles": "O=C(O)CC[C@H](O)C(=O)O",
    "recorded.value": 48
  }
]

Please find the next compound below.
Bench note, Lysine-specific demethylase 2A (Homo sapiens, UniProt Q9Y2K7): entry O=C(O)CC[C@@H](O)C(=O)O , its IC50 = 106

====

measured.target: UniProtKB Q96KS0
Sequence (Q96KS0 whole entry): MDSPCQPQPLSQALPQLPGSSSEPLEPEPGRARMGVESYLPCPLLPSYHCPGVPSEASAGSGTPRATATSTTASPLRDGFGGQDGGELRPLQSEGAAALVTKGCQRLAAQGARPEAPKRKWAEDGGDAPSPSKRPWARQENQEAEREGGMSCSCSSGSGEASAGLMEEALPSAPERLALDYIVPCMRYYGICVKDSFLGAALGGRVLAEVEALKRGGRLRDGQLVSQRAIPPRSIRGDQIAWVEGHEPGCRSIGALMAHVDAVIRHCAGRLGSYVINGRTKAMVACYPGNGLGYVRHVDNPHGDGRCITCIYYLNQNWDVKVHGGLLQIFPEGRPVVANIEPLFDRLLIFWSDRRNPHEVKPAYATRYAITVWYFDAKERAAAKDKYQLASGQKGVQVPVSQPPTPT
endpoint.label: IC50 (µM)
Kindly answer with a numeric value in µM, unit omitted.

Kindly note the recorded IC50 for O=C(O)/C=C/C(=O)N(O)CCCCNCc1ccc(COC(=O)Nc2cccc3ccccc23)cc1 , which is 54
